TARGET_OR_SYSTEM: T1, recombinant human FGF23 (R179Q) (human, UniProt Q9GZV9 25-251)
T1 construct: also called rhFGF23(R179Q); hFGF23(R179Q)
T1 sequence (looked up): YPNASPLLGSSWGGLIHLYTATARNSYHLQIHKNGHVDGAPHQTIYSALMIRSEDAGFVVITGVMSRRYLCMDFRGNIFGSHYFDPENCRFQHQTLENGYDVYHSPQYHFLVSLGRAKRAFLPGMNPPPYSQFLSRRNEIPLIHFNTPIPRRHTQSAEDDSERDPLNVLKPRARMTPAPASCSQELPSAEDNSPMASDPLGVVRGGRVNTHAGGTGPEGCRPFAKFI
ASSAY_SUMMARY: SPR, antibody captured on hIgG chip, rhFGF23(R179Q) analyte
Known SA (surface activity) of a selection of binders
// return numeric value only (unit: %, not printed)

// known answers, use as guide
UGX157 (antibody, human IgG1, kappa, V domains shown, also called HC:I54Y; I54Y) VH: QVQLVQSGAEVKKPGASVKVSCKASGYTFTNHYMHWVRQAPGQGLEWMGIINPYSGSTSNAQKFQGRVTMTRDTSTSTVYMELSSLRSEDTAVYYCARDIVDAFDFWGQGTMVTVSS VL: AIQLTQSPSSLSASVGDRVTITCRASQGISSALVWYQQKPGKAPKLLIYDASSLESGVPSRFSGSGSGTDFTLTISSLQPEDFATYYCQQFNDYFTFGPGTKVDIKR
89.1
UGX175 (antibody, human IgG1, kappa, V domains shown, also called HC:A103S; A103S) VH: QVQLVQSGAEVKKPGASVKVSCKASGYTFTNHYMHWVRQAPGQGLEWMGIINPISGSTSNAQKFQGRVTMTRDTSTSTVYMELSSLRSEDTAVYYCARDIVDSFDFWGQGTMVTVSS VL: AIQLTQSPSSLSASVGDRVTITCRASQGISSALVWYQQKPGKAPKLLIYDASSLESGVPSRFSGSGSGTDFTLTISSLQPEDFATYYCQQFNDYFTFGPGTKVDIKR
86.8
UGX164 (antibody, human IgG1, kappa, V domains shown, also called HC:S59T) VH: QVQLVQSGAEVKKPGASVKVSCKASGYTFTNHYMHWVRQAPGQGLEWMGIINPISGSTTNAQKFQGRVTMTRDTSTSTVYMELSSLRSEDTAVYYCARDIVDAFDFWGQGTMVTVSS VL: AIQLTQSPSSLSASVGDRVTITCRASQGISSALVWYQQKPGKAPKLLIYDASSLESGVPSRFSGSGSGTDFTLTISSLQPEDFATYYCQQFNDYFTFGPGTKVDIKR
91.9

*Q* Which SA (surface activity) is listed for UGX188 (antibody, human IgG1, kappa, V domains shown, also called HC:S57E, HC:S59D) VH: QVQLVQSGAEVKKPGASVKVSCKASGYTFTNHYMHWVRQAPGQGLEWMGIINPISGETDNAQKFQGRVTMTRDTSTSTVYMELSSLRSEDTAVYYCARDIVDAFDFWGQGTMVTVSS VL: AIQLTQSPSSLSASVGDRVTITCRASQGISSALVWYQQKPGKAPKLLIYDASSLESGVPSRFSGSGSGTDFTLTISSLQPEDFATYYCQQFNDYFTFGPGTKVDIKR ?
*A* 95.8

*Q* Which SA (surface activity) is listed for UGX151 (antibody, human IgG1, kappa, V domains shown, also called HC:N31F) VH: QVQLVQSGAEVKKPGASVKVSCKASGYTFTFHYMHWVRQAPGQGLEWMGIINPISGSTSNAQKFQGRVTMTRDTSTSTVYMELSSLRSEDTAVYYCARDIVDAFDFWGQGTMVTVSS VL: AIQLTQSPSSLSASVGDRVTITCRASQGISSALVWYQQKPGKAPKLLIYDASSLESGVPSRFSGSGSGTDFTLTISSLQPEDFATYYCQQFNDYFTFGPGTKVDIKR ?
*A* 90.3

*Q* Which SA (surface activity) is listed for UGX178 (antibody, human IgG1, kappa, V domains shown, also called HC:N31F, HC:S59F) VH: QVQLVQSGAEVKKPGASVKVSCKASGYTFTFHYMHWVRQAPGQGLEWMGIINPISGSTFNAQKFQGRVTMTRDTSTSTVYMELSSLRSEDTAVYYCARDIVDAFDFWGQGTMVTVSS VL: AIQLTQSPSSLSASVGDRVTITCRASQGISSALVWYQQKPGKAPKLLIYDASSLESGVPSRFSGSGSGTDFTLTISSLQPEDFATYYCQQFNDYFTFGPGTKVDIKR ?
*A* 85.6

These data points were gathered from patent US20260250371A1.
